Assay system Intestinal-type alkaline phosphatase (Bos taurus, UniProt P19111); read-out recorded as pIC50.
Numbers only, as −log10 of the molar value.

>  <smiles-text>
NS(=O)(=O)c1ccc(NC(=O)c2ccccc2)cc1

>  <target-under-test>
Intestinal-type alkaline phosphatase (Bos taurus, UniProt P19111)
Sequence (P19111 whole entry): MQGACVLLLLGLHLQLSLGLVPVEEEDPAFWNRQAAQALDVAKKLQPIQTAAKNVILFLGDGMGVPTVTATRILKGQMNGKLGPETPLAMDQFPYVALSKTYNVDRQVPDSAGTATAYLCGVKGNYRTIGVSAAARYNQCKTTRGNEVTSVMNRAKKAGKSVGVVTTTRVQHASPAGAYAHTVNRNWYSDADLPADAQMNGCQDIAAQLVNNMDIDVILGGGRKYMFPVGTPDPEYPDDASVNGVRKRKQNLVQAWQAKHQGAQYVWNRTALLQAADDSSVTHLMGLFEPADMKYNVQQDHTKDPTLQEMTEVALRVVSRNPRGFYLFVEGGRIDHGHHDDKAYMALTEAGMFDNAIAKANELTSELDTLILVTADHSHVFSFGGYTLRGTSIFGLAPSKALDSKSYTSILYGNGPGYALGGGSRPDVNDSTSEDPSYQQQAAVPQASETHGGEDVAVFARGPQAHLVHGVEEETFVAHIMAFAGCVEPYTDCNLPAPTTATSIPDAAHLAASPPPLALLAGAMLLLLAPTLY

>  <pIC50>
5.52

$$$$
>  <smiles-text>
CCOc1ccc(NS(=O)(=O)c2ccc(C)cc2)cc1

>  <target-under-test>
Intestinal-type alkaline phosphatase (Bos taurus, UniProt P19111)

>  <pIC50>
4.52

$$$$
>  <smiles-text>
CCOc1ccc(NS(=O)(=O)c2ccc(F)cc2)cc1

>  <target-under-test>
Intestinal-type alkaline phosphatase (Bos taurus, UniProt P19111)

>  <pIC50>
6.14

$$$$
>  <smiles-text>
NS(=O)(=O)c1ccc(NC(=O)c2ccc(F)cc2)cc1

>  <target-under-test>
Intestinal-type alkaline phosphatase (Bos taurus, UniProt P19111)

>  <pIC50>
5.23

$$$$
>  <smiles-text>
Cc1ccc(S(=O)(=O)Nc2ccc(S(N)(=O)=O)cc2)cc1

>  <target-under-test>
Intestinal-type alkaline phosphatase (Bos taurus, UniProt P19111)

>  <pIC50>
4.84

$$$$

For the 3 compounds below, give their pIC50 values.
1. NS(=O)(=O)c1ccc(CCNC(=O)c2ccccc2)cc1
2. NS(=O)(=O)c1ccc(CNC(=O)c2ccccc2)cc1
3. NS(=O)(=O)c1ccc(CCNC(=O)c2ccc(F)cc2)cc1

Output line:
1: 6.37; 2: 5.35; 3: 5.17

###

Can you tell me pIC50 for the items I'm about to list?
Biological target: Alkaline phosphatase, tissue-nonspecific isozyme (Bos taurus, UniProt P09487)
Sequence (P09487 whole entry): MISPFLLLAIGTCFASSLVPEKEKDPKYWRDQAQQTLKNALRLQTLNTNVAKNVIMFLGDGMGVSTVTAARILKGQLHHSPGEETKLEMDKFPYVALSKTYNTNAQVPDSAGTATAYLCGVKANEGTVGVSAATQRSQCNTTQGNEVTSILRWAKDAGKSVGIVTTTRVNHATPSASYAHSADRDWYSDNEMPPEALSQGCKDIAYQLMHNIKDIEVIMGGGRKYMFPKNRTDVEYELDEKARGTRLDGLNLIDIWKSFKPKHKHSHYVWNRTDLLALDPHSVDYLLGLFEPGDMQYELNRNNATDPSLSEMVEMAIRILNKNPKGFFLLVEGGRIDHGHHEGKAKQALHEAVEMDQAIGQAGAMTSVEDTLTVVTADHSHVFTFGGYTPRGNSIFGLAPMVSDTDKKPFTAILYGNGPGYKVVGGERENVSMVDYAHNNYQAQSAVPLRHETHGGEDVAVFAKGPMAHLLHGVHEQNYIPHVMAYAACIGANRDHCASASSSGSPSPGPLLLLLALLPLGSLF
Give bare numbers, as −log10 of the molar value.

>  <smiles-text>
CCOc1ccc(NS(=O)(=O)c2ccc(C)cc2)cc1

>  <target-under-test>
Alkaline phosphatase, tissue-nonspecific isozyme (Bos taurus, UniProt P09487)

>  <reading>
6.51

$$$$
>  <smiles-text>
NS(=O)(=O)c1cccc(NC(=O)c2ccc(F)cc2)c1

>  <target-under-test>
Alkaline phosphatase, tissue-nonspecific isozyme (Bos taurus, UniProt P09487)

>  <reading>
4.25

$$$$
>  <smiles-text>
Cc1ccc(S(=O)(=O)Nc2cccc(S(N)(=O)=O)c2)cc1

>  <target-under-test>
Alkaline phosphatase, tissue-nonspecific isozyme (Bos taurus, UniProt P09487)

>  <reading>
5.65

$$$$
>  <smiles-text>
Cc1ccc(S(=O)(=O)NCc2ccc(S(N)(=O)=O)cc2)cc1

>  <target-under-test>
Alkaline phosphatase, tissue-nonspecific isozyme (Bos taurus, UniProt P09487)

>  <reading>
6.94

$$$$
>  <smiles-text>
NS(=O)(=O)c1cccc(NS(=O)(=O)c2ccc(F)cc2)c1

>  <target-under-test>
Alkaline phosphatase, tissue-nonspecific isozyme (Bos taurus, UniProt P09487)

>  <reading>
6.82

$$$$
>  <smiles-text>
Cc1ccc(S(=O)(=O)Nc2ccccc2)cc1

>  <target-under-test>
Alkaline phosphatase, tissue-nonspecific isozyme (Bos taurus, UniProt P09487)

>  <reading>
6.74

$$$$
>  <smiles-text>
NS(=O)(=O)c1ccc(CNC(=O)c2ccc(F)cc2)cc1

>  <target-under-test>
Alkaline phosphatase, tissue-nonspecific isozyme (Bos taurus, UniProt P09487)

>  <reading>
6.21

$$$$
>  <smiles-text>
NS(=O)(=O)c1ccc(CNC(=O)c2ccccc2)cc1

>  <target-under-test>
Alkaline phosphatase, tissue-nonspecific isozyme (Bos taurus, UniProt P09487)

>  <reading>
5.54

$$$$

Continue with the next molecule.
Input line: Consider the molecule shown here: Cc1ccc(S(=O)(=O)NCCc2ccc(S(N)(=O)=O)cc2)cc1 What is its recorded pIC50?
Output line: 4.39
